EXPERIMENTAL_TARGET: Calcitonin gene-related peptide type 1 receptor (Homo sapiens, UniProt O60894+Q16602)
Sequence (Q16602 whole entry, one chain of several): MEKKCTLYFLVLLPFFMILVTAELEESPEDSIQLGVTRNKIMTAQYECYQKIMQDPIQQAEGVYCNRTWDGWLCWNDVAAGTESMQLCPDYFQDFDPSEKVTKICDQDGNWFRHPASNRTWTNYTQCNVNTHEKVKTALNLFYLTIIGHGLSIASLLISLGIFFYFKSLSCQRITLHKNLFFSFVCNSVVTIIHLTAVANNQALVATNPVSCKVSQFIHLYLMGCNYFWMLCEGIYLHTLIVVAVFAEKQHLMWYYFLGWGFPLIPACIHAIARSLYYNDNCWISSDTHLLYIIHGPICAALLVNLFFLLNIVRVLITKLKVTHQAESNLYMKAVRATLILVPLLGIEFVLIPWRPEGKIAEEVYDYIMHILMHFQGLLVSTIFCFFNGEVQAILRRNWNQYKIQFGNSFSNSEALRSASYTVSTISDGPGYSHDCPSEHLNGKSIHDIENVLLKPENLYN
ASSAY_METHOD_TEXT: Antagonist activity at CGRP receptor in human SK-N-MC cells assessed as inhibition of CGRP-stimulated formation of cyclic AMP
READOUT_LABEL: EC50 (nM)

(P) O=C1Nc2ccccc2C2(CCN(C(=O)N[C@H](Cc3csc4ccccc34)C(=O)N3CCC(N4CCCCC4)CC3)CC2)N1
(Q) O=C1CC2(CCN(C(=O)N[C@H](Cc3csc4ccccc34)C(=O)N3CCC(N4CCCCC4)CC3)CC2)c2ccccc2N1
(R) O=C1Nc2ccccc2C2(CCN(C(=O)N[C@H](Cc3csc4ccccc34)C(=O)N3CCC(N4CCCCC4)CC3)CC2)O1
(S) O=C1NCC2(CCN(C(=O)N[C@H](Cc3csc4ccccc34)C(=O)N3CCC(N4CCCCC4)CC3)CC2)c2ccccc21
Q) Ranking field: EC50; order: falling. Answer format: list of labels, ordered as asked.
A) S, R, Q, P
(S: 130 nM, R: 31 nM, Q: 12 nM, P: 3 nM)

* * *

EXPERIMENTAL_TARGET: cytochrome P450 (isoform not stated) (Homo sapiens, UniProt P04798+P05177+P05181+P08684+P10632+P10635+P11509+P11712+P13584+P20813+P20815+P20853+P24462+P24903+P33260+P33261+P51589+P78329+P98187+Q02928+Q08477+Q16678+Q16696+Q5TCH4+Q6VVX0+Q7Z449+Q8TAV3+Q96SQ9+Q9HB55)
ASSAY_METHOD_TEXT: Inhibition of cytochrome P450
Type: ADME
READOUT_LABEL: IC50

O=C1Nc2ccccc2C2(CCN(C(=O)N[C@H](Cc3csc4ccccc34)C(=O)N3CCC(N4CCCCC4)CC3)CC2)O1: > 40 µM

Proceeding to the next compound to report its IC50.
Q) Any idea what its IC50 is? The compound is O=C(N[C@H](Cc1csc2ccccc12)C(=O)N1CCC(N2CCCCC2)CC1)N1CCC2(CC1)N=C(c1ccccc1)NC2=O
A) > 40 µM
